Ref: paper PMC8875555

# target_entity: UniProt Q16790
readout_name: Ki (µM)

mol_smiles=Nc1nc(Nc2ccc(S(N)(=O)=O)cc2)nn1C(=O)c1c(F)cccc1F target_entity="UniProt Q16790" observed=0.22
mol_smiles=Cc1ccc(Nc2nccc(N(C)c3ccc4c(C)n(C)nc4c3)n2)cc1S(N)(=O)=O target_entity="UniProt Q16790" observed=1.7
mol_smiles=Cn1cc(/C=C2\C(=O)Nc3ccc(S(N)(=O)=O)cc32)c2ccccc21 target_entity="UniProt Q16790" observed=2.7
mol_smiles=Nc1nc(Nc2ccc(S(N)(=O)=O)cc2)nn1C(=S)Nc1c(F)cccc1F target_entity="UniProt Q16790" observed=0.1
